So I've got a bunch of molecules here, and I need their pIC50 values.
Molecular target: recombinant human mGluR2 (Homo sapiens (Human), UniProt Q14416)
Sequence (Q14416 19-872): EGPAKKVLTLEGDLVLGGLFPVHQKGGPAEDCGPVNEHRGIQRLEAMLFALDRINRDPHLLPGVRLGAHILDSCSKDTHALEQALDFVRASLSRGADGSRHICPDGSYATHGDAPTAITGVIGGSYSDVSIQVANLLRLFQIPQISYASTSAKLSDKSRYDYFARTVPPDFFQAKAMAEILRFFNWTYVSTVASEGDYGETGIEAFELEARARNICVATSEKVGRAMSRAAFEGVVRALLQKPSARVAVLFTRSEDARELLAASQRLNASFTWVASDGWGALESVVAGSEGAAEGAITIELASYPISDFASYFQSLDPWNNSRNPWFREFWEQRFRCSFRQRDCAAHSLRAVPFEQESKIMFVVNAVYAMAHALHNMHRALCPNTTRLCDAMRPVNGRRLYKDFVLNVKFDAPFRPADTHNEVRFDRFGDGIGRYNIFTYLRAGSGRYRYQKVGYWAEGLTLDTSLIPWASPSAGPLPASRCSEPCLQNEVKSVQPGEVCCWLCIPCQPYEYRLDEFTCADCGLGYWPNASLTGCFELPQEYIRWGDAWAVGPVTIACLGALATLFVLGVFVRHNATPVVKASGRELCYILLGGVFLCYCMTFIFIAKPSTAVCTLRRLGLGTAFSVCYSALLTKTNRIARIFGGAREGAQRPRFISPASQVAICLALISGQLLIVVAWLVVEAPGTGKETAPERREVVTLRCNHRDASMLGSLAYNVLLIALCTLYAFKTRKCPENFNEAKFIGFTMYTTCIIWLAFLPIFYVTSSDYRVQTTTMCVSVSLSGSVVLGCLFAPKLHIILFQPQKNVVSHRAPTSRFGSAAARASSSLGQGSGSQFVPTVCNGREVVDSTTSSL
Assay: FLIPR Ca2+ mobilization antagonist assay in CHO dhfr- cells expressing human mGluR2 and Gα16
Conditions: antagonist response after addition of 2,500 nM glutamate, Fluo-4 AM, FLIPR384
One number for each entry, as −log10 of the molar value.

NC(=O)c1cc(-c2ccc(F)c(F)c2)c2c(n1)CN(Cc1ccnc(C(F)(F)F)c1)CC2 [Example 2-4] :: 7.69
NC(=O)c1cc(-c2ccc(F)cc2)c2c(n1)CN(C[C@H]1CCO[C@@H](C3CC3)C1)CC2 [Example 1-2B] :: 6.89
Cn1nccc1CN1CCc2c(-c3ccc(Cl)cc3F)cc(C(N)=O)nc2C1 [Example 1-8] :: 8.06

Give measured pIC50 for every item shown.
1. Cn1nnnc1CN1CCc2c(-c3ccc(F)cc3F)cc(C(N)=O)nc2C1 [Example 2-18]
2. COc1cc(C(N2CCc3c(C4=CCC(C)CC4)cc(C(N)=O)nc3C2)C(F)(F)F)ccn1 (racemic) [Example 4-3B]
3. CC1(C)CC(CN2CCc3c(-c4ccc(Cl)cc4F)cc(C(N)=O)nc3C2)CCO1 (single isomer, unassigned) [Example 1-5B]
4. CC(C)c1noc(CN2CCc3c(-c4ccc(Cl)cc4F)cc(C(N)=O)nc3C2)n1 [Example 9-6]
5. NC(=O)c1cc(-n2cc(C(F)(F)F)cn2)c2c(n1)CN(Cc1ccnc(C(F)(F)F)c1)CC2 [Example 5-10]
6. COc1ncc(CN2CCc3c(-c4ccc(Cl)cc4F)cc(C(N)=O)nc3C2)cn1 [Example 10-2]

Result:
7.31
7.06
8.12
8.10
7.49
8.13

###

Molecular target: recombinant human mGluR2 (Homo sapiens (Human))
Test: FLIPR Ca2+ mobilization antagonist assay in CHO dhfr- cells expressing human mGluR2 and Gα16
Conditions: antagonist response after addition of 2,500 nM glutamate, Fluo-4 AM, FLIPR384
measured.quantity: pIC50
Numbers only, as −log10 of the molar value.

As a guide, the following entries are already answered.
NC(=O)c1cc(-c2c(F)cc(F)cc2F)c2c(n1)CN(Cc1cc(C(F)(F)F)ncn1)CC2 :: 7.58
NC(=O)c1cc(-c2ccc(Cl)cn2)c2c(n1)CN(Cc1ccnn1C(F)F)CC2 :: 7.71
NC(=O)c1cc(-c2ccc(F)cc2F)c2c(n1)CN(CC(O)c1ccccc1)CC2 (single isomer, unassigned) [Example 8-3B] :: 7.90
NC(=O)c1cc(-c2ccc(F)cc2F)c2c(n1)CN(CC(=O)N1CCOCC1)CC2 :: 7.00
NC(=O)c1cc(C2=CCC3(CC2)CC3)c2c(n1)CN(Cc1ccnc(C(F)(F)F)c1)CC2 :: 7.30
CC1(C)CCC(CN2CCc3c(-c4ccc(F)cc4F)cc(C(N)=O)nc3C2)CO1 (single isomer, unassigned) :: 7.61
Cc1conc1CN1CCc2c(-c3ccc(F)cc3F)cc(C(N)=O)nc2C1 :: 7.88
CC1(C)CC(CN2CCc3c(-c4ccc(F)cc4F)cc(C(N)=O)nc3C2)CCO1 (single isomer, unassigned) [Example 1-11B] :: 7.34

Next, consider the following compound.
Request: Read the entry NC(=O)c1cc(N2CCC(F)(F)CC2)c2c(n1)CN(Cc1cc(C(F)(F)F)ncn1)CC2 and write its reported pIC50.
Result: 7.44

Attribution: patent US10072003B2
